- Assay Comment: Skeletal muscle concentration of enantiomers after oral dosing of mice
- Assay type: in vivo, male BALB/c mice
- Run Parameters: male, BALB/c, mouse, skeletal muscle, oral, 100 mg/kg, 0.30 h after p.o. N-Acetyl-L-Leucine 100 mg/kg; individual mice
Endpoint Name: concentration at 0.3 h

[
  {
    "Entry Smiles": "CC(=O)N[C@H](CC(C)C)C(=O)O",
    "Endpoint Name": "concentration at 0.3 h",
    "Result": "1090 ng/mL"
  }
]

====

- Assay Comment: in vivo
- Run Parameters: male, BALB/c, mouse, in vivo, po, 100 mg/kg
Endpoint Name: k el (s⁻¹)

[
  {
    "Entry Smiles": "CC(=O)N[C@@H](CC(C)C)C(=O)O",
    "Endpoint Name": "k el",
    "Readout Number": 0.000778
  },
  {
    "Entry Smiles": "CC(=O)N[C@H](CC(C)C)C(=O)O",
    "Endpoint Name": "k el",
    "Readout Number": 0.000611
  }
]

====

- Assay Comment: Skeletal muscle concentration of enantiomers after oral dosing of mice
- Assay type: in vivo, male BALB/c mice
- Run Parameters: male, BALB/c, mouse, skeletal muscle, oral, 100 mg/kg, 24.0 h after p.o. N-Acetyl-DL-Leucine 100 mg/kg; individual mice

[
  {
    "Compound": "CC(=O)N[C@@H](CC(C)C)C(=O)O [N-Acetyl-L-Leucine, N-acetyl-L-leucine]",
    "concentration at 24 h": "136 ng/mL"
  }
]

====

- Assay Comment: Plasma pharmacokinetics of N-acetyl-leucine enantiomers after oral dosing of mice
- Run Parameters: male, BALB/c, mouse, plasma, po, 100 mg/kg
Endpoint Name: k el (s⁻¹)

[
  {
    "Compound": "CC(=O)N[C@@H](CC(C)C)C(=O)O [N-Acetyl-L-Leucine, N-acetyl-L-leucine]",
    "Endpoint Name": "k el",
    "Unit Annotation": "s⁻¹",
    "Readout Number": 0.000667
  },
  {
    "Compound": "CC(=O)N[C@H](CC(C)C)C(=O)O [N-Acetyl-D-Leucine, N-acetyl-D-leucine]",
    "Endpoint Name": "k el",
    "Unit Annotation": "s⁻¹",
    "Readout Number": 0.000472
  }
]

====

- Assay Comment: Plasma pharmacokinetics of N-acetyl-leucine enantiomers after oral dosing of mice
- Run Parameters: male, BALB/c, mouse, plasma, oral, 100 mg/kg, concentration in plasma, 8.00 h after p.o. N-Acetyl-L-Leucine 100 mg/kg; individual mice

[
  {
    "Entry Smiles": "CC(=O)N[C@H](CC(C)C)C(=O)O",
    "Unit Annotation": "ng/mL",
    "concentration at 8 h": 17.3
  }
]

====

- Assay Comment: Plasma pharmacokinetics of N-acetyl-leucine enantiomers after oral dosing of mice
- Run Parameters: male, BALB/c, mouse, plasma, po, 100 mg/kg
Each entry below carries its recorded Tmax.

[
  {
    "Entry Smiles": "CC(=O)N[C@H](CC(C)C)C(=O)O",
    "Tmax": "< 15 min"
  },
  {
    "Entry Smiles": "CC(=O)N[C@@H](CC(C)C)C(=O)O",
    "Tmax": "< 15 min"
  }
]

====

# key: entry, value: concentration at 0.3 h
- Assay Comment: Skeletal muscle concentration of enantiomers after oral dosing of mice
- Type: in vivo, male BALB/c mice
- Run Parameters: male, BALB/c, mouse, skeletal muscle, oral, 100 mg/kg, 0.30 h after p.o. N-Acetyl-DL-Leucine 100 mg/kg; individual mice
Endpoint Name: concentration at 0.3 h (ng/mL)

[
  {
    "Entry Smiles": "CC(=O)N[C@@H](CC(C)C)C(=O)O",
    "Readout Number": 469
  },
  {
    "Entry Smiles": "CC(=O)N[C@H](CC(C)C)C(=O)O",
    "Readout Number": 2860
  }
]
